Record form. Attribute: IC50. Fill in for each entry.
System: 8392 (B-cell leukemia/lymphoma) cells
PROTOCOL_SUMMARY: Test A in vitro cytotoxicity, 2 hour exposure, [3H]-thymidine incorporation
Assay type: cell-based
CONDITION_PARAMETERS: read-out: 2 hour IC50 8392, mean ± 1 standard deviation
Method: To assess cytotoxic effects, various concentrations of compounds of the invention were added to cultures of MV522 (human lung carcinoma cell line), HL60 (myeloid leukemia cells), and 8392 (B-cell leukemia/lymphoma) cells for 48 hours, then cell growth/viability was determined by trypan blue exclusion. […] The filter papers were added to vials containing scintillation fluid and residual radioactivity determined in a beta (scintillation) counter. […]
Report as a plain number; the unit µM is understood.

*Q* Which IC50 reading was recorded for the molecule CC1=C2C=C(CO)C=C2C(=O)C(C)(O)C12CC2 (centres unmarked) [Compound 1] ?
*A* 37

*Q* Which IC50 reading was recorded for the molecule CC(=O)OCC1=CC2=C(C)C3(CC3)C(C)(O)C(=O)C2=C1 (centres unmarked) [Compound 3] ?
*A* 62
